experiment.description: in vivo
experimental.conditions: SD, rat, po, 5 mg/kg
quantity.name: AUC(0-inf) (ng·h/mL)
I only need the number, in ng·h/mL, no unit after it.

Worked examples follow.
-- ask Query: AUC(0-inf); subject: O=C(O)C1C2CCC(CC2)C1Nc1cc(-c2cccc3c2oc2ccccc23)nc(-c2c[nH]c3ncc(F)cc23)n1 (racemic) [Example 18]
-- reply 6880

-- ask Then Cc1nc2[nH]cc(-c3nc(NC4C5CCC(CC5)C4C(=O)O)cc(-c4ccccc4)n3)c2cc1F (racemic) [Example 80] ?
-- reply 10600

-- ask Then CC(C)(C)[C@@H](CC(=O)O)Nc1nc(-c2c[nH]c3ncc(F)cc23)nc(-c2ccco2)c1F [Example 61] ?
-- reply 10700

-- ask Then Cn1ccc2c(NC3C4CCC(CC4)C3C(=O)O)nc(-c3c[nH]c4ncc(F)cc34)nc21 (racemic) [Example 65] ?
-- reply 12100

-- ask Then O=C(O)C1C2CCC(CC2)C1Nc1cc(-c2ccco2)nc(-c2c[nH]c3ncc(F)cc23)n1 (racemic) [Example 9] ?
-- reply 17500

Now let's try a different one.
-- ask Query: AUC(0-inf); subject: O=C(O)C1C2CCC(CC2)C1Nc1nc(-c2c[nH]c3ncc(F)cc23)nc(C#Cc2ccccc2)c1F (racemic) [Example 63]
-- reply 15400
